- TEST_TARGET: 3',5'-cyclic-AMP phosphodiesterase 4B (Homo sapiens)
- TEST_PROTOCOL: qHTS Assay for Inhibitors of PDE-IV (AID 607)
- CONDITION_LABEL: HEK293 ACTOne CNG channel cells, membrane potential fluorescence; series mostly up to 22.9 µM
Results filed as inconclusive are left out. Calls of active or inactive are those of the source. Calls follow the shape of the dose curve; as a rule, active = well fitted activation curve with a large enough effect in the main read-out, with a control signal flat (not every such curve was filed as active); inconclusive = small, poorly fitted or top-dose-only effect, or effect the other way, or a change in a side signal; inactive = flat fitted curve, though single readings scatter.
Choose the fitting class; nothing outside active, inactive is accepted.

Worked set:
# SMILES_DATA, CLASSIFICATION
data = [
    ("CN1CCN(c2cc(-c3ccccc3Cl)ncn2)CC1", "inactive"),
    ("COc1ccc(-c2nc3cnc(N4CCNCC4)nc3n(CCC#N)c2=O)cc1", "inactive"),
    ("N#Cc1ccc(CN2CCC3(CC2)CCN(C(=O)c2cc(C(F)(F)F)cc(C(F)(F)F)c2)CC3)cc1", "inactive"),
    ("N[C@H](Cn1ccc(=O)c(O)c1)C(=O)O", "inactive"),
    ("O=C(c1ccncc1)N1CCC2(CCN(Cc3nccs3)CC2)CC1", "inactive"),
    ("COc1cccc(Cn2c(=O)c(-c3ccccc3)nc3cnc(N4CCN(C)CC4)nc32)c1", "inactive"),
    ("COc1ccc(C(=O)N2CCC3(CC2)CCN(c2ncccn2)CC3)cc1", "inactive"),
    ("CC(C)CN1CCC2(CC1)CCN(C(=O)c1cccc(F)c1)CC2", "inactive"),
    ("COCCn1c(=O)c(-c2ccc(F)cc2)nc2cnc(N(C)C)nc21", "active"),
    ("COc1ccccc1CNc1nc(-c2ccc(N(C)C)cc2)nc2ccccc12", "inactive"),
]

**Query** Dear colleague, could you share the recorded outcome for "O=C(c1cc(C(F)(F)F)cc(C(F)(F)F)c1)N1CCC2(CCCN(c3ccncc3)C2)CC1" when you have a moment?
**Result** inactive

**Query** Dear colleague, could you share the recorded outcome for "O=C(Oc1ccccc1)N1CCC2(CCCN(c3cccc(-c4ccccc4)c3)C2)CC1" when you have a moment?
**Result** inactive

###

- TEST_TARGET: Ubiquitin carboxyl-terminal hydrolase 1 (Homo sapiens)
- TEST_PROTOCOL: Inhibitors of USP1/UAF1: Pilot qHTS (AID 504865);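 also: rhodamine fluorescence freed from ubiquitin-rhodamine substrate followed over time; top concentration of the series differs between compounds; nearly all actives have a fitted effect of over 35% in size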
- CONDITION_LABEL: purified USP1/UAF1, Ub-rhodamine cleavage fluorescence; series mostly up to 54.9 µM
Inconclusive results are not listed. Active and inactive are the calls of the source. Calls follow the shape of the dose curve; as a rule, active = well fitted inhibition curve with a large enough effect; inconclusive = small, poorly fitted or top-dose-only effect; inactive = flat fitted curve, though single readings scatter.
Choose the fitting class; nothing outside active, inactive is accepted.

Worked set:
# MOLECULE, CLASSIFICATION
records = [
    ("COCCc1ccc(OC[C@H](O)CNC(C)C)cc1", "inactive"),
    ("COc1cccc(Cn2c(=O)c(-c3cccc(C#N)c3)nc3cnc(OC)nc32)c1", "inactive"),
    ("CCCN[C@@H](C)C(=O)Nc1ccccc1C", "inactive"),
    ("Cc1ccccc1-c1cncnc1N1CCNCC1", "inactive"),
]

Alright, here's another molecule for you.
**Query** Dear colleague, could you share the recorded outcome for "C=CCc1ccccc1OC[C@H](O)CNC(C)C" when you have a moment?
**Result** inactive

###

- System: Dd2
- TEST_PROTOCOL: qHTS profiling for inhibitors of Plasmodium falciparum proliferation (AID 504749); also: nearly all actives have a fitted effect of over 60% in size
- CONDITION_LABEL: P. falciparum in erythrocytes, SYBR Green DNA, 72 h; series mostly up to 12.8 µM
Inconclusive results are not listed. Active and inactive are the calls of the source. The call rests on the fitted dose curve; in most records, active means well fitted inhibition curve with a large enough effect; inconclusive means small, poorly fitted or top-dose-only effect; inactive means flat fitted curve, though single readings scatter.
Choose the fitting class; nothing outside yes for active, no for inactive is accepted.

# COMPOUND, CLASSIFICATION
rows = [
    ("C[C@@H](C(=O)O)c1ccc(C(=O)c2cccs2)cc1", "no"),
]

**Query** Dear colleague, could you share the recorded outcome for "COCCc1ccc(OC[C@H](O)CNC(C)C)cc1" when you have a moment?
**Result** no

**Query** Dear colleague, could you share the recorded outcome for "NC(N)=NC[C@@H]1COC2(CCCCC2)O1" when you have a moment?
**Result** no
